Target: human OX2R (Homo sapiens, UniProt O43614)
Construct: expressed in transfected cells; host or cells: CHO (Chinese hamster ovary) cells, line CHOOX2R, co-expressing NFAT-luciferase
Sequence (O43614 1-444): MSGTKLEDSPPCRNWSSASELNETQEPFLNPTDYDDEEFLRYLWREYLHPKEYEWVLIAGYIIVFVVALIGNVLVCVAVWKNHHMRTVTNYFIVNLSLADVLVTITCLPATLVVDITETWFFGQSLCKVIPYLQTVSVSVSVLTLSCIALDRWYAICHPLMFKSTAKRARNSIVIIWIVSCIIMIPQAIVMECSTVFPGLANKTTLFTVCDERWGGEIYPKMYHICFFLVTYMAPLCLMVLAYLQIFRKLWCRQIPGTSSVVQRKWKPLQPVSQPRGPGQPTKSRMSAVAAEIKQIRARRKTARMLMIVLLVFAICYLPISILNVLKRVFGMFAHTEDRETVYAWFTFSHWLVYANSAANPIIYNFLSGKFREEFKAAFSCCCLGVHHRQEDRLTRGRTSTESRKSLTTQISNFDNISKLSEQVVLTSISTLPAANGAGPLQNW
Assay: Agonist activity against OX2R: intracellular calcium (Fura-2AM, FDSS7000) in CHOOX2R cells
Type: cell-based
Settings: 1.0 μM test compound; relative to orexin-A as full agonist (100%)
Answer each item with its documented Response (%) OX2R.
Answers are plain numbers, in %.

Past entries and their recorded results:
compound="COc1ccc(-c2cccc(C(=O)N(C)C)c2)cc1S(=O)(=O)Nc1cccc(NCc2ccc(C)cc2)c1 [Example 27]" attribute_measured="Response (%) OX2R" measurement=126
compound="COc1ccc(-c2cccc(C(=O)N(C)C)c2)cc1S(=O)(=O)Nc1cccc(NC(=O)Nc2ccccc2N(C)C)c1 [Example 41]" attribute_measured="Response (%) OX2R" measurement=93
compound="COc1cccc(CNc2cccc(NS(=O)(=O)c3cc(-c4cccc(C(=O)N(C)C)c4)ccc3OC)c2)c1 [Example 23]" attribute_measured="Response (%) OX2R" measurement=95
compound="COc1ccc(Nc2cccc(NS(=O)(=O)c3cc(-c4cccc(C(=O)N(C)C)c4)ccc3OC)c2)cc1OC [Example 33]" attribute_measured="Response (%) OX2R" measurement=92
compound="COc1ccccc1NC(=O)Nc1cccc(NS(=O)(=O)c2cc(-c3cccc(C(=O)N(C)C)c3)ccc2OC)c1 [Example 52]" attribute_measured="Response (%) OX2R" measurement=81

Below is a list of compounds. For each, state its recorded Response (%) OX2R.
1. COc1ccc(-c2cccc(C(=O)N(C)C)c2)cc1S(=O)(=O)Nc1cccc(NC(=O)c2ccc3c(c2)OCO3)c1 [Example 5]
2. COc1ccc(-c2cccc(C(=O)N(C)C)c2)cc1S(=O)(=O)Nc1cccc(NC(=O)Nc2ccc(Br)cc2)c1 [Example 42]

[8, 109]
